Biological target: human hNET (Homo sapiens, UniProt P23975)
Construct: expressed in transfected cells
Sequence (P23975 whole entry): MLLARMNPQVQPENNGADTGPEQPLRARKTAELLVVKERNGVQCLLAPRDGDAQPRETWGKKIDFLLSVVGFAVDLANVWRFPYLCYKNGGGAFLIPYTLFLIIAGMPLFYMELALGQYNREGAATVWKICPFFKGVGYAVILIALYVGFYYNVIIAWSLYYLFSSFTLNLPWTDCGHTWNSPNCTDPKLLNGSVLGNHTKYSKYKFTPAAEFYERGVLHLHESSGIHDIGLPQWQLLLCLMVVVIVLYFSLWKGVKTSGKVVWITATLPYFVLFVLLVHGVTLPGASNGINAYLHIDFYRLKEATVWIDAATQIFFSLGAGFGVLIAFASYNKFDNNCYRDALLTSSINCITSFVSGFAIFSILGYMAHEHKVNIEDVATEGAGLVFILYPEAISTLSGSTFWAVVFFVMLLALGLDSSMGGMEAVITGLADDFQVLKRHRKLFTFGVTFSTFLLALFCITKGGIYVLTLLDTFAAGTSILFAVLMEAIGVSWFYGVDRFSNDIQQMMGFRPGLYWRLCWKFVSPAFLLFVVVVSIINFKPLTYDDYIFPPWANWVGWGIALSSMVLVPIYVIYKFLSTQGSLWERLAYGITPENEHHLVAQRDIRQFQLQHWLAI
Assay: Norepinephrine (NE) uptake assay in MDCK-Net6 cells
Type: cell-based
Conditions: [3H]NE uptake, MDCK-Net6 cells
readout.name: IC50 (nM)

O=S(=O)(c1ccccc1)c1c[nH]c2cccc(CCNC3CCCCC3)c12; 1430
CC(C)NCCCc1cccc2[nH]cc(S(=O)(=O)c3ccccc3)c12; 11
CCN(C)CCCc1cccc2[nH]cc(S(=O)(=O)c3ccccc3)c12; 28
O=S(=O)(c1ccccc1)c1c[nH]c2cccc(CCCN3CCCCC3)c12; 932
O=S(=O)(c1ccccc1)c1c[nH]c2cccc(CCN3CCNCC3)c12; 573
CN(CCc1cccc2[nH]cc(S(=O)(=O)c3ccccc3)c12)C1CCCCC1; 109
CCN(CC)CCc1cccc2[nH]cc(S(=O)(=O)c3ccccc3)c12; 241
CC(C)N(C)CCc1cccc2[nH]cc(S(=O)(=O)c3ccccc3)c12; 126
CN(C)CCc1cccc2[nH]cc(S(=O)(=O)c3ccccc3)c12; 80
O=S(=O)(c1ccccc1)c1c[nH]c2cccc(CCNC3CC3)c12; 371
CC(C)NCCc1cccc2[nH]cc(S(=O)(=O)c3ccccc3)c12; 51
CCN(C)CCc1cccc2[nH]cc(S(=O)(=O)c3ccccc3)c12; 48
CC1CCCN1CCc1cccc2[nH]cc(S(=O)(=O)c3ccccc3)c12 (stereo not shown); 121
CC(NCCc1cccc2[nH]cc(S(=O)(=O)c3ccccc3)c12)C(C)(C)C (stereo not shown); 2400
CN1CCN(CCc2cccc3[nH]cc(S(=O)(=O)c4ccccc4)c23)CC1; 1300
CC(C)CNCCc1cccc2[nH]cc(S(=O)(=O)c3ccccc3)c12; 430
O=S(=O)(c1ccccc1)c1c[nH]c2cccc(CCNCc3ccccc3)c12; 311
CCN(CCc1cccc2[nH]cc(S(=O)(=O)c3ccccc3)c12)C(C)C; 485
O=S(=O)(c1ccccc1)c1c[nH]c2cccc(CCNC3CCC3)c12; 99
